- TARGET_OF_ASSAY: Gab2 (Homo sapiens)
- TEST: flow
VALUE_KIND: Kd (nM)
Quick reminder: number only, in nM, skip the unit.

Worked set:
| BINDER | MEASUREMENT |
| --- | --- |
| SHP2 N-SH2, Q06124 (protein) WFHPNITGAEAENLLLTRGVDGSFLARPSKSNPGDFTLSVRRNGAVTHIKIQNTGDYYDLYGGEKFATLAELVQYYMEHHGQLKEKNGDVIELKYPL | 160 |
| SHP2 N-SH2, Q06124 (protein) WFHPNITGVEAENLLLTRGVDGSFLARPSKSNPGDFTLSVRRNGAVTHIKIQNTGDYYDLYGGEKFATAAELVQYYMEHHGQLKEKNGDVIELKYPL | 210 |
| SHP2 N-SH2, Q06124 (protein) WFHPNITGVEAENLLLTRGVDGSFLARPSKSNPGDFTLSVRRNGAVTHVKIQNTGDYYDLYGGEKFATLAELVQYYMEHHGQLKEKNGDVIELKYPL | 150 |

Problem: State its Kd for this binder: SHP2 N-SH2, Q06124 (protein) WFHPNVTGVEAENLLLTRGVDGSFLARPSKSNPGDFTLSVRRNGAVTHIKIQNTGDYYDLYGGEKFATLAELVQYYMEHHGQLKEKNGDVIELKYPL
Result: 80

Problem: Identify measured Kd corresponding to SHP2 N-SH2, Q06124 (protein) WFHPNITGVEAENLLLTRGVDGSFLARPSKSNPGDFTLSVRRNGAVTHIKIQNTGDYYDLYGGEKFATLAELAQYYMEHHGQLKEKNGDVIELKYPL
Result: 190

Problem: Please indicate Kd recorded for SHP2 N-SH2, Q06124 (protein) WFHPNITGVEAENLLLTRGVDGSFLARPSKSNPGDFTLSVRRNGAVTHIKIQNTGDYYDAYGGEKFATLAELVQYYMEHHGQLKEKNGDVIELKYPL
Result: 860

Problem: Provide measured Kd value, entry: SHP2 N-SH2, Q06124 (protein) WFHPNITGVEAENLLLTRGVDGSFLARPSKSNPGDFTLSVRRNGAVSHIKIQNTGDYYDLYGGEKFATLAELVQYYMEHHGQLKEKNGDVIELKYPL
Result: 10

Problem: Retrieve Kd measured for SHP2 N-SH2, Q06124 (protein) WFHPNITGVEAENLLLTRGADGSFLARPSKSNPGDFTLSVRRNGAVTHIKIQNTGDYYDLYGGEKFATLAELVQYYMEHHGQLKEKNGDVIELKYPL and print it.
Result: 100

Problem: Check the records and state Kd for SHP2 N-SH2, Q06124 (protein) WFHPNITGVEAENLLLTRGVDGSFLARPSKSNPGDFTLSVRRNGAVTHIKIQNTGDYYDLYGGEKFATLAELVQYYMEHHGQAKEKNGDVIELKYPL
Result: 730

Problem: Input SHP2 N-SH2, Q06124 (protein) WFHPNITGVEAENLLLTRGVDGSFLARPSKSNPGDFTLSVRRNGAVTHIKIQNTGDYYDLYGGEKFATLAELVQYYMEHHGQLKEKNGDAIELKYPL , output reported Kd.
Result: 130
